- MEASUREMENT TARGET: T1, purified human glycophorin A protein (Sigma, cat # G5017) (human, UniProt P02724 20-150)
- T1 construct: mature; also called Sigma hGPA; Sigma GPA
- T1 sequence (looked up): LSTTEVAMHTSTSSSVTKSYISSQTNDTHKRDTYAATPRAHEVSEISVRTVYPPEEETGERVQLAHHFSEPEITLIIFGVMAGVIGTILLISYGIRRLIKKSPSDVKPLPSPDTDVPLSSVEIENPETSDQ
- MEASUREMENT NOTES: ELISA, IgG
Give measured EC50 for each item. Keep answers brief.
One number for each entry, in nM.

binder="Hu6C12-12 (antibody, V domains shown, IgG format; VH.1c + Vk.1a) VH: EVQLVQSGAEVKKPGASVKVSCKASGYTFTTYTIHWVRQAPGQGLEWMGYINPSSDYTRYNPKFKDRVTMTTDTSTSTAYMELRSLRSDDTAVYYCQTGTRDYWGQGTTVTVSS VL: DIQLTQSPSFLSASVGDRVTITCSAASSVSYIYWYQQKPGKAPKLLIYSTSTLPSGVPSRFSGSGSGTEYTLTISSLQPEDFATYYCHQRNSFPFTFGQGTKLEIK" property=EC50 unit_text=nM meas_value=10.4
binder="Hu6C12-19 (antibody, V domains shown, IgG format; VH.1b + Vk.1b) VH: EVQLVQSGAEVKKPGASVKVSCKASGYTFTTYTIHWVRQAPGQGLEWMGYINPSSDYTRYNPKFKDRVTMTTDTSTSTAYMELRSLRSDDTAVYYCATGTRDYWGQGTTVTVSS VL: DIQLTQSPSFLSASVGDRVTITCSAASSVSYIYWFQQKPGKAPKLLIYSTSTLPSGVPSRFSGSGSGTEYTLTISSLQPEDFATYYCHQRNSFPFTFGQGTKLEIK" property=EC50 unit_text=nM meas_value=0.876
binder="Hu6C12-20 (antibody, V domains shown, IgG format; VH.1c + Vk.1b) VH: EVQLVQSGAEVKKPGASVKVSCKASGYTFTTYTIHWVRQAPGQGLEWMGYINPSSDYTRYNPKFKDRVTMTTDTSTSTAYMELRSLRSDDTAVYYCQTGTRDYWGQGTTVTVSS VL: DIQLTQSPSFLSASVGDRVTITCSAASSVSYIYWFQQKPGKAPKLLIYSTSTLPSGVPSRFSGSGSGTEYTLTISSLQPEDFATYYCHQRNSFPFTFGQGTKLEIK" property=EC50 unit_text=nM meas_value=0.393

Turning now to a further record.
Identify measured EC50 associated with Hu6C12-5 (antibody, V domains shown, IgG format; VH.1e + Vk.1) VH: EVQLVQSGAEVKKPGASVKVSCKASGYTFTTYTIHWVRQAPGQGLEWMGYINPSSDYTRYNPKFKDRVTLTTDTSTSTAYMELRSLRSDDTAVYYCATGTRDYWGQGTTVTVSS VL: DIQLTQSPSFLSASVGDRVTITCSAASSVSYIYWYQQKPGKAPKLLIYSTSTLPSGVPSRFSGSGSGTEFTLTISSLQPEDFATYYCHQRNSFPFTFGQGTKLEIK
8.45

Data origin, for the record: patent US20190359687A1
